SYSTEM_TESTED: ERK5 (Homo sapiens, UniProt Q13164)
Construct: screened for activity against several kinases in Jurkat cells; endogenous in cells; host or cells: Jurkat cell lysate
Sequence (Q13164 whole entry): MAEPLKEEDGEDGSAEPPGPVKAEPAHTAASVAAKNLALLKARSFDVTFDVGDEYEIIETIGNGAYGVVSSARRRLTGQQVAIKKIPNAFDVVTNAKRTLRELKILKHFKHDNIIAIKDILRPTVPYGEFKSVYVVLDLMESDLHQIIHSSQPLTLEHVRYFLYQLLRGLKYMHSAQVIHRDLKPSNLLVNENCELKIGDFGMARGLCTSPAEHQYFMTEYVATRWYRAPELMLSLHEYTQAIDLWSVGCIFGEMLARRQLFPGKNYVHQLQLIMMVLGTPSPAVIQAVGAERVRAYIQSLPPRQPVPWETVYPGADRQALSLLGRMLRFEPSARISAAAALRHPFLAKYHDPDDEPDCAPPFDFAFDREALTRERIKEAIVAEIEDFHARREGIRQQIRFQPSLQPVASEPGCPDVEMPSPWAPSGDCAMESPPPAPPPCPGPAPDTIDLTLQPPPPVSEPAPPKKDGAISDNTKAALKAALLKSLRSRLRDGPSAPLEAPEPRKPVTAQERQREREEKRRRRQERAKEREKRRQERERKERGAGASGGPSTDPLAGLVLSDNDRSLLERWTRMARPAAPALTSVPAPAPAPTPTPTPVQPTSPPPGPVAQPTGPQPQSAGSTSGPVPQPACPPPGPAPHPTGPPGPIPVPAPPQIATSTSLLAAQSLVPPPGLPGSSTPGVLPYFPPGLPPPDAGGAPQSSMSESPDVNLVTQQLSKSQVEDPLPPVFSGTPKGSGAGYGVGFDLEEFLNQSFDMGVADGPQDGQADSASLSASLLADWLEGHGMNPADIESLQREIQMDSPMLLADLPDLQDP
TEST_PROTOCOL: Probe-based (AX9989 acyl phosphate ATP probe) kinase profiling in Jurkat lysate: ERK5
Type: binding
CONDITION_CONTEXT: screening concentration 1 μM; read-out: ERK5 Inhibition % at indicated screening concentration
Experimental: In this example, potency of the compounds as ERK5 inhibitors was assessed, and the compounds were screened for activity against several kinases in Jurkat cells. […] Kinase active site peptides were identified and quantified using LC/MS. Percent inhibition was calculated as the normalized decrease in the ESI-MS fragment intensities of probe-labeled peptides in samples incubated with the test compound compared to those without. […]

[
  {
    "COMPOUND": "CCOc1cc(C(=O)N2CC[C@@H](N3CCN(C)CC3)C2)ccc1Nc1cc2c(cn1)N(C)C(=O)c1ccccc1N2C1CC1 [Compound T68]",
    "inhibition at 1 µM": "> 90%"
  },
  {
    "COMPOUND": "CCOc1cc(C(=O)N2CCC(N3CC[C@@H](O)C3)CC2)ccc1Nc1cc2c(cn1)N(C)C(=O)c1ccccc1N2C [Compound T10]",
    "inhibition at 1 µM": "> 90%"
  },
  {
    "COMPOUND": "CC(C)Oc1cc(C(=O)N2CC[C@@H](NCCF)C2)ccc1Nc1cc2c(cn1)N(C)C(=O)c1ccccc1N2C [Compound T50]",
    "inhibition at 1 µM": "75 to 90%"
  },
  {
    "COMPOUND": "CCOc1cc(C(=O)N2CCN(c3cccnc3)CC2)ccc1Nc1cc2c(cn1)N(C)C(=O)c1occc1N2C [Compound T56]",
    "inhibition at 1 µM": "> 90%"
  },
  {
    "COMPOUND": "CCOc1cc(C(=O)N2CCN(C(C)=O)CC2)ccc1Nc1cc2c(cn1)N(C)C(=O)c1scnc1N2C [Compound T73]",
    "inhibition at 1 µM": "35 to 50%"
  },
  {
    "COMPOUND": "CCOc1cc(C(=O)N2CCC(N3CCCC3)CC2)ccc1Nc1cc2c(cn1)N(C)C(=O)c1scnc1N2C [Compound T6]",
    "inhibition at 1 µM": "> 90%"
  }
]

----------
SYSTEM_TESTED: BRD4 bromodomain domain I [BRD4(1)] (Homo sapiens, UniProt O60885)
Construct: BRD4 bromodomain domain I [BRD4(1)]; purchased Cayman Chemicals
TEST_PROTOCOL: BRD4 bromodomain domain 1 inhibition assay (TR-FRET)
Assay type: binding
CONDITION_CONTEXT: screening concentration 10 μM
Overview of recorded inhibition at 10 µM for various molecules
OUTCOME_MEASURE: inhibition at 10 µM

[
  {
    "STRUCTURE_SMILES_STRING": "CCOc1cc(C(=O)N2CCCCC2)ccc1Nc1cc2c(cn1)N(C)C(=O)c1ccccc1N2C",
    "VAL": "70 to 85%"
  },
  {
    "STRUCTURE_SMILES_STRING": "CCOc1cc(C(=O)NCC2CC2)ccc1Nc1cc2c(cn1)N(C)C(=O)c1ccccc1N2C",
    "VAL": "< 70%"
  },
  {
    "STRUCTURE_SMILES_STRING": "CCOc1cc(C(=O)N2CCN(CC3CC3)CC2)ccc1Nc1cc2c(cn1)N(C)C(=O)c1ccccc1N2C",
    "VAL": "70 to 85%"
  },
  {
    "STRUCTURE_SMILES_STRING": "CCOc1cc(C(=O)N2CCN(CC)CC2)ccc1Nc1cc2c(cn1)N(C)C(=O)c1ccccc1N2C",
    "VAL": "70 to 85%"
  },
  {
    "STRUCTURE_SMILES_STRING": "CCOc1cc(C(=O)N2CCN(C(C)(C)C)CC2)ccc1Nc1cc2c(cn1)N(C)C(=O)c1ccccc1N2C",
    "VAL": "70 to 85%"
  },
  {
    "STRUCTURE_SMILES_STRING": "CCOc1cc(C(=O)N2CCC(N3CC[C@H](O)C3)CC2)ccc1Nc1cc2c(cn1)N(C)C(=O)c1ccccc1N2C",
    "VAL": "> 85%"
  }
]
